Measured S/N, listed per entry for reference.
- Tgt: alkaline phosphatase (Bos taurus)
- Sequence (P19111 20-506 limits assumed): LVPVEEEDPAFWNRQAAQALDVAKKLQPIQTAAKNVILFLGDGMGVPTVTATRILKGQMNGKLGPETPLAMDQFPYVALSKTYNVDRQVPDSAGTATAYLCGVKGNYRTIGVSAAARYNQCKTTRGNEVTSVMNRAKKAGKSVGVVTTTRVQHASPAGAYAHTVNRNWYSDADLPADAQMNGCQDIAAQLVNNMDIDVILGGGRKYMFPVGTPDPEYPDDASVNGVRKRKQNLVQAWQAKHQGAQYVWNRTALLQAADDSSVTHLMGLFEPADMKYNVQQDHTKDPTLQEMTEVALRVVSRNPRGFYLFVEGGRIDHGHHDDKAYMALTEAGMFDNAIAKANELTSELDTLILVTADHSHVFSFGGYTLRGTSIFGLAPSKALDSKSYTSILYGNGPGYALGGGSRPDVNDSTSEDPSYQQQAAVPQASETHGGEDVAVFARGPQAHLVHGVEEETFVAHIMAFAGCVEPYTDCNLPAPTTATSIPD
- Procedure summary: Chemiluminescent signal and signal:background with enhancer polymers (Example XVII)
- Type: biochemical
- Condition label: polymer TBQ; 5 min

| Compound | S/N |
| --- | --- |
| COC1(c2cccc(OP(=O)(O)O)c2)OOC12C1CC3CC2CC(O)(C3)C1 (single isomer, unassigned) [A-OH-AMPPD] | 366.0 |
| COC1(c2cccc(OP(=O)(O)O)c2)OOC12C1CC3CC2CC(O)(C3)C1 (single isomer, unassigned) [B-OH-AMPPD] | 97.6 |
| COC1(c2cccc(OP(=O)(O)O)c2)OOC12C1CC3CC2CC(Cl)(C3)C1 (stereo not shown) | 1249.6 |
| COC1(c2cccc(OP(=O)(O)O)c2)OOC12C1CC3CC(C1)CC2C3 (stereo not shown) [AMPPD, reference compound] | 191.2 |
